# credit: the supplement of paper PMC9170038

Tested on: K4 kissing-loop RNA reporter;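 note: bound reporter read as fluorescence of individual clusters on recovered sequencing chips by microscopy, with normalized cluster intensities fitted with a binding model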
Experimental Protocol: apparent KD of K4 kissing-loop reporter; higher = weaker reporter binding
Particulars: Eterna round: R107; input ligand: FMN 200 uM
Measurement Kind: apparent KD of K4 kissing-loop reporter (nM)

# Sequence Data, Value
measured = [
    ("UUGUAUACUUUUGUGUGCGAUGUGUAGCCGCGAGGACCGGUACGGCCGCCACUCGCUGAGAGUGAUGUUCUCUGGGCUAUAUAUC [Skye_SS_TA3]", 1100),
    ("AAUAAUUUCAGAGGAUAUGCUUUAUUAUGAUUUUUAAAUAAUAAAUGCAGUGAUGUUGCUUAUUAUGCAGAAGGCUGAUUUAUAA [JR_SSFMNB_Sub015]", 143),
    ("AGACGAGAUGAAGGAUAUGCGGACAAAGUGAUGUUUUGUCCGAAAGUAGGCAGUAAUAUCGAAAAUGCAGAAGGUCAAGAACAUA [theeternabot_exclusion_KL_FMN_B_36]", 135),
    ("AAAAUAAACCAGUGAUGUUGGUGUCCAGAUACCAGCGAUAAAAGUCGCCCUUGGCAGCUGUGGACGUACAAAAUAAGUACGUCCU [MatMod 2 - Jieux - Same State - Theophylline A]", 703),
    ("UUAAUAUUGUCGGCCGCCACUGGAUAGUAAUUUGUAUAAUCUAUUUCAAAGUGAUGUUUUGAGUCCAGGACCGGGACAUUUGAUA [JR_Nu_ExcTryptoB_Sub030]", 503),
    ("CAUACGCAUGGAGGAUAUGAGAUUACUCAUGUCAUUUAAUAUUCUCAGUGAUGUUGAGAUUUAGGCUCAGAAGGCCAUGUGUAUG [Ex FMN B 17]", 355),
    ("CUAUCUUAAGAAGGAUAUUAUGUAACAAACGCAGGCGUAUUAGAAUCAGUGAUGUUGAAAUAGGUUUAAGAAGGUCUUAAAGAAA [theeternabot_sameState_KL_FMN_B_31]", 593),
    ("AAGUGUGGUCCAGUGAUGUUGGAACCAGAUACCAGCGACAUAGUGCGCCCUUGGCAGCUGGCACACAUGCGCUGCACGACUAGAA [Riusveis]", 206),
]

----------
System: MS2 coat protein
Experimental Protocol: apparent KD of MS2 coat protein; designed switch direction (-1 OFF switch, 1 ON switch): -1; higher = weaker reporter binding
Particulars: Eterna round: R95; input ligand: none
Short version: apparent KD of MS2 coat protein at least 100 nM is Yes, less is No.

# Sequence Data, Target Or System, Class Name
records = [
    ("AGUAGGUCUACCUUGGUGGAUCUGCAUUUAUGCAGGUGUACAUGAGGAUCACCCAUGUCCUCAUUUGCUCGUCUUAU [JL turnoff v2 99.27] (puzzle: Sensor v3, turn-off variant 2)", "MS2 coat protein", "Yes"),
    ("AUGAGGUUAGGAUAUACAUGAGGAUCACCCAUGUUGAAAGGUUAGAUAGGCGAAGCUGGUAGAAGGAACGGAGC [JR_Exclu3_Sub055] (puzzle: Exclusion 3)", "MS2 coat protein", "No"),
    ("CUUGUCCGAGGAUAUAUUAUGUGAUACAUGAGGAUCACCCAUGUUAUAUGAUGGAUAUAAAUAGAAGGCGGACGAG [Mat - Exclusion 5 - JL mod - D68] (puzzle: Exclusion 5)", "MS2 coat protein", "No"),
    ("CUUAGACAUGAGGAUCACCCAUGUGAGGAUAUGAUGCGAAUGAAGAAAGAAGGAAGCAUCAGAAGGCACAUAUG [Mat - Mod of Hyphema D26] (puzzle: Exclusion 1)", "MS2 coat protein", "Yes"),
    ("AAAAAGCUAGGAUAUACAUGAGGAUCACCCAUGUGAGGGCACCGCGGGCGCGGGACCGGUAGAAGGAGCAAAAA [Exc;s3-III] (puzzle: Exclusion 3)", "MS2 coat protein", "No"),
    ("AAAUCCGCUGAGGAUAUUAUGACUGAGAGGUCAUGAGAAGGCGGUACAUGAGGAUCACCCAUGUCUAUGGGCAA [Ex-6 Malc#27] (puzzle: Exclusion 6)", "MS2 coat protein", "Yes"),
]
